Reported values of Ki for individual entries
- PROTOCOL_TEXT: Inhibition of recombinant Anopheles gambiae AChE G119S mutant compound incubated for up to 60 mins at approximately 10 mins interval
- Set-up: unit not given here

[
  {
    "MOLECULE": "CC(C)Cc1cc(=O)n(C(=O)N(C)C)o1",
    "Ki": 0.55
  },
  {
    "MOLECULE": "CN(C)C(=O)n1oc(C2CC2)cc1=O",
    "Ki": 0.2
  },
  {
    "MOLECULE": "CC(C)CCc1cc(=O)n(C(=O)N(C)C)o1",
    "Ki": 0.4
  },
  {
    "MOLECULE": "CN(C)C(=O)Oc1cc(CCC2CCCC2)on1",
    "Ki": 0.12
  },
  {
    "MOLECULE": "CCCC(C)c1cc(OC(=O)N(C)C)no1 (stereo unspecified)",
    "Ki": 30.6
  },
  {
    "MOLECULE": "CN(C)C(=O)Oc1cc(CC(C)(C)C)on1",
    "Ki": 0.05
  }
]
